Values were extracted from patent US6242494A.

IC50 values, listed per item
target: methionine aminopeptidase-2 (MetAP2) (Homo sapiens, UniProt P50579); construct: made in house; host or cells: insect cells, baculovirus system (secreted, purified from culture supernatant); experiment: Inhibition of MetAP2 enzyme activity (96-well, Met-Ala-Ser substrate, L-amino acid oxidase/peroxidase/ortho-dianisidine, 450 nm); format: biochemical; details: IC50, recombinant MetAP2 4 μg/mL, pH 7.4, Met-Ala-Ser substrate, 20 minutes
Sequence (P50579 whole entry): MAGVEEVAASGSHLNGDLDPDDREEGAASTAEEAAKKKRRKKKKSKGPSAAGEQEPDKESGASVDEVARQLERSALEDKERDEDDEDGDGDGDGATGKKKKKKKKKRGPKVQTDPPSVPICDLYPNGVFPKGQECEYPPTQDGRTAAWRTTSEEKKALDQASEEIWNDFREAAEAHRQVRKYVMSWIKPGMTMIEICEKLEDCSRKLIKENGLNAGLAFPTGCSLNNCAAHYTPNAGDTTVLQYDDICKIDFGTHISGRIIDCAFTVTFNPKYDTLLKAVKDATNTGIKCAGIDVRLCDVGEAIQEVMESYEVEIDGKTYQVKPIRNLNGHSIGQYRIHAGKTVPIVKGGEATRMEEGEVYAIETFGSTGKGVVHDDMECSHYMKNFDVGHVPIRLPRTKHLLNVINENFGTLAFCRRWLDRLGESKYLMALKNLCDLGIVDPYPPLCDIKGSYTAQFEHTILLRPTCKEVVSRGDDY
Structures can show the parent of a compound that is named as a salt.
measure: IC50 (µM)

INSERT INTO assay_data (compound, measure, unit_of_measurement, observed_value) VALUES
  ('CCSCC[C@@H](NC(=O)CO)C(O)C(=O)NCCCCc1ccccc1 (some centres unmarked) [Example 40, hydrochloride]', 'IC50', 'µM', 81),
  ('CSCC[C@@H](N)C(O)C(=O)NCCc1ccccc1 (some centres unmarked) [Example 5, hydrochloride]', 'IC50', 'µM', 2.6),
  ('N[C@H](CC1CCCCC1)C(O)C(=O)Nc1cc(Cl)cc(Cl)c1 (mixture of isomers) [Example 112, Hydrochloride]', 'IC50', 'µM', 1.5),
  ('N[C@H](CC1CCCCC1)C(O)C(=O)NCCNC(=O)OCc1ccccc1 (some centres unmarked) [Example 78, hydrochloride]', 'IC50', 'µM', 1.8),
  ('COc1cccc(CCNC(=O)C(O)[C@H](N)CC2CCCCC2)c1 (mixture of isomers) [Example 196, hydrochloride]', 'IC50', 'µM', 0.82),
  ('N[C@H](CC1CCCCC1)C(O)C(=O)NCc1cccc(OC(F)(F)F)c1 (mixture of isomers) [Example 236, Hydrochloride]', 'IC50', 'µM', 1.9),
  ('CSCC[C@@H](N)C(O)C(=O)NCCc1ccc(S(N)(=O)=O)cc1 (some centres unmarked) [Example 9, hydrochloride]', 'IC50', 'µM', 2.3),
  ('CCCCCC(C)NC(=O)C(O)[C@H](N)CC1CCCCC1 (mixture of isomers) [Example 212, Hydrochloride]', 'IC50', 'µM', 1.7),
  ('COc1ccc(S(=O)(=O)NCCCCNC(=O)C(O)[C@H](N)CC2CCCCC2)cc1OC (mixture of isomers) [Example 85, hydrochloride]', 'IC50', 'µM', 3.2),
  ('C[C@@H](COC(=O)c1ccccc1)NC(=O)C(O)[C@H](N)CC1CCCCC1 (some centres unmarked) [Example 49, hydrochloride]', 'IC50', 'µM', 2.2),
  ('COc1ccc2[nH]cc(CCNC(=O)C(O)[C@H](N)CC3CCCCC3)c2c1 (some centres unmarked)', 'IC50', 'µM', 3.5);
